Where these numbers come from: PubChem BioAssay (NCI)

# System: NCI/ADR-RES ovarian
# Measurement Description: NCI-60 one-dose screen, 48 h
# Condition Label: 10 µM unless noted
The panel holds about 83,000 compounds, 20% with a hit somewhere; the sample as a whole holds those more often. Calls of active or inactive are those of the source. How the source made its calls: active means growth percent below 10; inactive means the rest.
Possible outcomes: active, inactive

Compound	Group
COCCOCCOCc1n(Cc2ccc3ccccc3n2)c2ccccc2[n+]1Cc1ccc2ccccc2c1	inactive
Fc1ccc2nc(-c3ccc(-c4noc(-c5ccc(Cl)cc5)n4)cc3)[nH]c2c1	inactive
Cc1ccc(CSCc2ccc(C(=O)NC3CC3)o2)cc1	inactive
Fc1cnccc1-c1nc2ccc3[nH]ncc3c2c2c1CCCC2	inactive
Cn1nc(C(F)(F)F)cc1-c1cc(Cl)c(OCc2ccc(Cl)cc2)c(-c2ccc(Cl)c(C(F)(F)F)c2)c1O	active
COc1ccc(C2=Nn3c(nnc3-c3ccc(Cl)cc3N)SC2)cc1	inactive
Cc1cc2nc3c(=O)[nH]c(=O)nc-3n(CC=O)c2cc1C	inactive
CC1CN(CCCOC(=O)Nc2ccc(Cl)cc2)CCN1C(C)(C)C (configuration not stated)	inactive
O=C1C2=C(C(=O)c3c(O)ccc(O)c31)N(c1ccc(N3CCOCC3)nc1)Cc1ccccc1O2	active
COC(=O)CNS(=O)(=O)c1ccc2c(c1)Cc1cc(S(=O)(=O)NCC(=O)OC)ccc1-2	inactive
COc1ccc(-c2oc(=O)ccc2-c2cc(OC)c(OC)c(OC)c2)cc1F	inactive
CNCc1ccccc1CN(CC(=O)Nc1ccc2c(c1)CC1(C2)C(=O)Nc2ncccc21)C(=O)C(C)(C)C (configuration not stated)	inactive
CCOC(=O)c1ccc(N(CCC(=O)O)C(C)=O)cc1	inactive
CC(=O)N[C@@H](CCC(N)=O)C(=O)O	inactive
COC(=O)C(C)NC1=C(Cl)C(=O)C(NC(C)C(=O)OC)=C(Cl)C1=O (configuration not stated)	inactive
O=c1cc(-c2ccc3c(c2)OCCO3)oc2cc(Cl)ccc12	inactive
COc1ccc2c(c1)CCCC21C(=O)Nc2c(Cl)cccc21 (configuration not stated)	inactive
CCN(CC)CCCC(C)Nc1cnc(C(=O)Nc2cc(C)cc3cccnc23)cn1 (configuration not stated)	inactive
O=C(CSc1ccc(Cl)cc1)Nc1ccc(-c2nc3ccccc3s2)c(Cl)c1	inactive
Cc1cc(O)ccc1C1=NN(c2ccc(S(N)(=O)=O)cc2)C(=O)CC1	inactive
Nc1nc(N)c2cc(CNc3ccc(Cl)c(Cl)c3)ccc2n1	inactive
CCCCCCCCCCCCCCCC1=NCC[N+]1(CCO)CCO	inactive
CCCC(CCC)NCC(O)c1cc(-c2ccc(C(F)(F)F)cc2)nc(C(F)(F)F)c1 (configuration not stated)	active
C[C@@H]1C[C@H](N)C[C@H](c2ccncc2NC(=O)c2ccc(F)c(-c3c(F)cccc3F)n2)C1	inactive
Cc1cc(Cl)c2ccc(N(C)C)cc2n1	inactive
CC1=C(C(=O)Nc2ccc(F)cc2)C(c2ccc(Cl)cc2)C2=C(CC(C)(C)CC2=O)N1 (configuration not stated)	inactive
Clc1ccc(Nc2ncnc3c2sc2ncccc23)cc1	inactive
COc1ccc(-c2[nH]nc(N)c2-c2cc(OC)c(OC)c(OC)c2)cc1	active
CCCCN(CCCC)CCCN=c1nc2c(c(N)n1-c1ccccc1)c(=S)n(-c1ccccc1)c(=S)n2-c1ccccc1	active
O=C(/C=C/c1cccc([N+](=O)[O-])c1)c1ccc(Nc2nc(N3CCCCC3)nc(N3CCCCC3)n2)cc1	inactive
COc1c(B(O)O)cccc1-c1nc2ccc3[nH]ncc3c2c2c1CCCC2	inactive
CCCCNCCC(O)c1cc2ccc(C(F)(F)F)cc2c2cc(C(F)(F)F)ccc12 (configuration not stated)	active
